# IC50 annotations
Target: human L-type amino acid transporter 2 (LAT2; S2-hLAT2 cells) (Homo sapiens)
Construct: expressed in transfected cells; host or cells: S2 cells (S2-hLAT2 / S2-LAT2); mammalian cell line described in Morimoto et al., J Pharmacol Sci 2008, 108, 505-516
Sequence (Q9UHI5 whole entry): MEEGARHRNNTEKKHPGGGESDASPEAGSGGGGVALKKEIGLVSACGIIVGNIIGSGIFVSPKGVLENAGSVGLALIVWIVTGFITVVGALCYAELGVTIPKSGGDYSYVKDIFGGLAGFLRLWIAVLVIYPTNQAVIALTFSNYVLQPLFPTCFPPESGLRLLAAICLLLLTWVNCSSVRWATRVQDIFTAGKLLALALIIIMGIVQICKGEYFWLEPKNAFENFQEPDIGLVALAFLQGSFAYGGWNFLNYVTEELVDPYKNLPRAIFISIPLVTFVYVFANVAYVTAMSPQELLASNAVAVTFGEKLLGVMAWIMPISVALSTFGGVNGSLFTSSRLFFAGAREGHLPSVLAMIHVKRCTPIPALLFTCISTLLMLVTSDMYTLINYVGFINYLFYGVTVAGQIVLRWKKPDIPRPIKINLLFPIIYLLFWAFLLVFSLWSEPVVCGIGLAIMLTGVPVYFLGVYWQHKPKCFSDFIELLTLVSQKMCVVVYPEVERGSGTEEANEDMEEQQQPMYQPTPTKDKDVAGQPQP
Sequence (P08195 102-630 partner): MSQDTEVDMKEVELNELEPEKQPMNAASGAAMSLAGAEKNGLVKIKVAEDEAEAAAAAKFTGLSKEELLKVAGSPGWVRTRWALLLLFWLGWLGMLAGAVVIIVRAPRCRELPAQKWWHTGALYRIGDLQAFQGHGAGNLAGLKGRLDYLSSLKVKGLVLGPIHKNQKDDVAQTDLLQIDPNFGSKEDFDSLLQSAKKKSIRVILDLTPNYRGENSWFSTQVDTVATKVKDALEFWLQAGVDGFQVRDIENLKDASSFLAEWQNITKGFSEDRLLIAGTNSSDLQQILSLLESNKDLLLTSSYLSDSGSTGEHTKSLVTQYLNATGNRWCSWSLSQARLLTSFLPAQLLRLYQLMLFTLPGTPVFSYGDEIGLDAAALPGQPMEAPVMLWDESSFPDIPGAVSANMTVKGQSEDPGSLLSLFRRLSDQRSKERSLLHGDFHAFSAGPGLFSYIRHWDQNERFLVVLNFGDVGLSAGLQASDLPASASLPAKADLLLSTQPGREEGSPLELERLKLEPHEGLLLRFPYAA
Assay: Inhibition of L-[14C]leucine uptake in S2-LAT2 cells
Type: cell-based
Conditions: inhibition of 1.0 μM L-[14C]leucine uptake, 1.0 min, 37° C., NI = no inhibition at 100 μM
MEASURED PARAMETER: IC50

compound=COc1cccc(COc2c(Br)cc(C[C@H](N)C(=O)O)cc2Br)c1 measured_parameter=IC50 experimental_result="> 100 µM"
compound="CC(N)(Cc1cc(Cl)c(OCc2ccc(C(F)(F)F)cc2)c(Cl)c1)C(=O)O (racemic)" measured_parameter=IC50 experimental_result="> 100 µM"
compound=N[C@@H](Cc1cc(I)c(OCc2ccc3c(c2)OCO3)c(I)c1)C(=O)O measured_parameter=IC50 experimental_result="> 100 µM"
compound=COc1ccc(COc2c(Br)cc(C[C@H](N)C(=O)O)cc2Br)cc1 measured_parameter=IC50 experimental_result="86.5 µM"
compound="COc1ccc(COc2c(Cl)cc(CC(C)(N)C(=O)O)cc2Cl)cc1 (racemic)" measured_parameter=IC50 experimental_result="16.4 µM"
compound=CCOc1ccc(COc2c(I)cc(C[C@H](N)C(=O)O)cc2I)c(OCC)c1 measured_parameter=IC50 experimental_result="> 100 µM"
compound="COc1cc(COc2c(Cl)cc(CC(C)(N)C(=O)O)cc2Cl)cc(OC)c1OC (racemic)" measured_parameter=IC50 experimental_result="> 100 µM"
compound=COc1ccc(COc2c(I)cc(C[C@H](N)C(=O)O)cc2I)c(C)c1C measured_parameter=IC50 experimental_result="> 100 µM"
